meta.source: the supplement of paper PMC11208160

Assay: recombinant barcode read abundance after kanamycin selection (control-corrected) (log10(CPM+1)); higher = more efficient recombination; sequences stand for … in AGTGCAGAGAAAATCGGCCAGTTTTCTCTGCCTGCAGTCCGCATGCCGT…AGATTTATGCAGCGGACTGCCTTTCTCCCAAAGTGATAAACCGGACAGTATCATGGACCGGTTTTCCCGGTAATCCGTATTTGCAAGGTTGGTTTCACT; site = the 11-nt target
Each record here notes measured recombinant barcode read abundance (log10).
Recorded Metric: recombinant barcode read abundance (log10)

1. GGTTACACTTGGGTTCTAACCTGTTGCCT (site GGATACACTAG)
0.0395
2. GTCGTGTCTTGGGTTCTAACCTGTTGCCG (site GTCGTGTCTCG)
1.28
3. CAACCGTCTTGGGTTCTAACCTGTTGCCT (site CAACCGGCTAG)
0.0528
4. TCGCGCTCTTGGGTTCTAACCTGTTGCTT (site TCGCGCTCTAA)
0.419
5. GGATATACTTGGGTTCTAACCTGTTGCCT (site GGATTTACTAG)
0.186
6. TAGACTACTTGGGTTCTAACCTGTTGCTG (site TAGACTACTCA)
0.609
7. GTCGACCCTTGGGTTCTAACCTGTTGCCT (site GTCGACGCTAG)
0.136
8. AAGTTGACTTGGGTTCTAACCTGTTGCCT (site AAGTTGACTAG)
1.57
9. ATTGGATCTTGGGTTCTAACCTGTTGCCT (site ATTGGTTCTAG)
0.205
10. GCAGGGACTTGGGTTCTAACCTGTTGCCT (site GGAGGGACTAG)
0.313

---

Assay: recombinant UMI read abundance after kanamycin selection (control-corrected) (log10(CPM+1)); higher = more efficient recombination; extreme values may be limits of the assay; sequences stand for … in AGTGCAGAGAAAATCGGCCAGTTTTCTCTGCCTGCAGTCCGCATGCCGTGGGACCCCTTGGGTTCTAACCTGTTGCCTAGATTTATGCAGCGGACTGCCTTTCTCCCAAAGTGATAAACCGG…AGGTTGGTTTCACT; site = the 11-nt donor
Recorded Metric: recombinant UMI read abundance (log10)

1. CTCCCAACATGGACCGGTTTTCCCGGTAATCCGTATTTGAG (site CTCCCGACTCT)
0.0167
2. AAAAGGCCATGGACCGGTTTTCCCGGTAATCCGTATTTGAC (site ATAAGGCCTGT)
0
3. GTGGAGGCATGGACCGGTTTTCCCGGTAATCCGTATTTGTT (site GTGGAGGCTCA)
0.524
4. CGCGGTACATGGACCGGTTTTCCCGGTAATCCGTATTTGCT (site CGCTGTACTAG)
0.467
5. GCCCGCTCATGGACCGGTTTTCCCGGTAATCCGTATTTGCG (site GCCCGCTCTCG)
2.44
6. ACTAGGACATGGACCGGTTTTCCCGGTAATCCGTATTTGAG (site ACTAGCACTCT)
0.00393
7. AGAGAGGCATGGACCGGTTTTCCCGGTAATCCGTATTTGCT (site AGATAGGCTAG)
1.69
8. GTTTATCCATGGACCGGTTTTCCCGGTAATCCGTATTTGCT (site GCTTATCCTAG)
0
9. TGCTCGGCATGGACCGGTTTTCCCGGTAATCCGTATTTGGT (site TGCTGGGCTAC)
0.00677
10. TTGACTACATGGACCGGTTTTCCCGGTAATCCGTATTTGCT (site TTGACTACTAG)
1.09
11. CGCATGCCATGGACCGGTTTTCCCGGTAATCCGTATTTGCA (site CGCATGCCTTG)
0.808
12. ATTGAAACATGGACCGGTTTTCCCGGTAATCCGTATTTGGC (site ATTGAAACTGC)
2.15
13. CGAGGACCATGGACCGGTTTTCCCGGTAATCCGTATTTGGC (site CGAGGACCTCC)
0.0246
14. CAAGCGCCATGGACCGGTTTTCCCGGTAATCCGTATTTGTT (site CAAGCGCCTAA)
2.13
15. CCCTAGCCATGGACCGGTTTTCCCGGTAATCCGTATTTGCG (site CCCTAGCCTTG)
0
16. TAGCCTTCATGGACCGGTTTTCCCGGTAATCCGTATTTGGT (site TAGCCTACTAC)
0.0102
17. AGGACTACATGGACCGGTTTTCCCGGTAATCCGTATTTGAA (site AGGACTACTGT)
0.477
18. CGGGCACCATGGACCGGTTTTCCCGGTAATCCGTATTTGCA (site CGGGCACCTTG)
0
19. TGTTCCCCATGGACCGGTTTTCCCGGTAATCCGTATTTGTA (site CGTTCCCCTTA)
0.193
20. CAAGCAGCATGGACCGGTTTTCCCGGTAATCCGTATTTGCC (site CAAGCAGCTCG)
1.16
21. GGTATACCATGGACCGGTTTTCCCGGTAATCCGTATTTGGT (site GGTATACCTAC)
0.00474
22. TTTGCGGCATGGACCGGTTTTCCCGGTAATCCGTATTTGTT (site TTTGCGGCTAC)
0.0157
23. GCTACGGCATGGACCGGTTTTCCCGGTAATCCGTATTTGCC (site GCTACTGCTGG)
0
24. GAGCTCACATGGACCGGTTTTCCCGGTAATCCGTATTTGCT (site GAGCTCACTAC)
0.00315
25. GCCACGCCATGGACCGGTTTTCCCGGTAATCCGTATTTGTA (site GCGACGCCTTA)
0.00719
26. GGATTCACATGGACCGGTTTTCCCGGTAATCCGTATTTGTT (site GGATTCACTAA)
1.44
27. GTAGGGACATGGACCGGTTTTCCCGGTAATCCGTATTTGAC (site GTAGGTACTGT)
1.87
28. ATCTATACATGGACCGGTTTTCCCGGTAATCCGTATTTGTC (site ATCTATACTGG)
0
29. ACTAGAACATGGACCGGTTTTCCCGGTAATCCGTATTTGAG (site ACTAGAACTCA)
0.00396
30. GGATAGACATGGACCGGTTTTCCCGGTAATCCGTATTTGTC (site GGATAGACTGT)
1.81
31. AGGTGGACATGGACCGGTTTTCCCGGTAATCCGTATTTGCA (site AGGAAGACTTG)
1.46
32. TAGGTGTCATGGACCGGTTTTCCCGGTAATCCGTATTTGCA (site TAGGTGTCTTG)
3.29
33. TGGAATACATGGACCGGTTTTCCCGGTAATCCGTATTTGCA (site TCGAATACTTG)
0.55
34. CGGACTACATGGACCGGTTTTCCCGGTAATCCGTATTTGAC (site CGGACTACTGT)
2.98
35. GAATGGTCATGGACCGGTTTTCCCGGTAATCCGTATTTGCA (site GAATGGGCTTG)
0.00395
36. AGGACTACATGGACCGGTTTTCCCGGTAATCCGTATTTGCC (site AGGACTACTGC)
0
